Molecular target: EGFR (human) (UniProt P00533)
Sequence (P00533 whole entry, looked up): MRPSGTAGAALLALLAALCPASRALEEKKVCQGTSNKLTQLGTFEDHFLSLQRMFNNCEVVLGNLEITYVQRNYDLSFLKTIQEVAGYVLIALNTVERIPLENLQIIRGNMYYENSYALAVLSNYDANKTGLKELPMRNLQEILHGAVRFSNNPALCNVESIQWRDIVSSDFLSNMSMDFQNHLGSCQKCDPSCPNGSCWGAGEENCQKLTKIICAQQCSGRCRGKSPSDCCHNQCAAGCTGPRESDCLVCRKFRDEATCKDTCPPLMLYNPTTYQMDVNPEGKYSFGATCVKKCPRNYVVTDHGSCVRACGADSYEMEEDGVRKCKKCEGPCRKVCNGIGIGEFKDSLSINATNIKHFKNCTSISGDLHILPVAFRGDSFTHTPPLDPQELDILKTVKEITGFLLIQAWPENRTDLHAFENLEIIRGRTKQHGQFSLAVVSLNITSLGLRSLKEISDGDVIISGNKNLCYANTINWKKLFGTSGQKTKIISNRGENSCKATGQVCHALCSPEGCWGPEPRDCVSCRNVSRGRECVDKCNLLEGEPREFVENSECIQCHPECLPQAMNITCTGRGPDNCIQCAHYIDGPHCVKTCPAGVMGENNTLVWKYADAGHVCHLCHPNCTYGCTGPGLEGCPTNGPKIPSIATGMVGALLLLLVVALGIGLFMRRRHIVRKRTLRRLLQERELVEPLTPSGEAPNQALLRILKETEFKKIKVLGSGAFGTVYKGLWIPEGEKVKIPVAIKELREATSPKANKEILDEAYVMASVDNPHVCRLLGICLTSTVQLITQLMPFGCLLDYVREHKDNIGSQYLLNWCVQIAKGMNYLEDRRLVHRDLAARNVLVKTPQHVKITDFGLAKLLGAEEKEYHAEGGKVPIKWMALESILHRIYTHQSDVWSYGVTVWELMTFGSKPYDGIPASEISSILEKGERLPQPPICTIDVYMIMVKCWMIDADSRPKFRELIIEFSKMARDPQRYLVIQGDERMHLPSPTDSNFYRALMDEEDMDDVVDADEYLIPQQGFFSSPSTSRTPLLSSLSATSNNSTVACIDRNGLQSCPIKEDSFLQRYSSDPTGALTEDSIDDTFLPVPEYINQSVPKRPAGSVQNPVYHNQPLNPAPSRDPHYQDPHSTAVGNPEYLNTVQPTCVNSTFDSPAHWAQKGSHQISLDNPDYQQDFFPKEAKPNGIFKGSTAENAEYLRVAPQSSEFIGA
measure: IC50 (nM)

Some solved entries appear below for comparison.
O=C(NCCN1CCCC1)c1cn(-c2ccc3ncnc(Nc4ccc5c(cnn5Cc5ccc(F)cc5)c4)c3c2)cc1CCO ... 16
O=C(c1cn(-c2ccc3ncnc(Nc4ccc(OCc5cccc(F)c5)c(Cl)c4)c3c2)cc1CCO)N1CCOCC1 ... 8
O=C(Cn1ccc(-c2ccc3ncnc(Nc4ccc(OCc5cccc(F)c5)c(Cl)c4)c3c2)c1)N1CCC(N2CCCCC2)CC1 ... 79

a. O[C@H](CN1CCOCC1)Cn1ccc(-c2ccc3ncnc(Nc4ccc(OCc5cccc(F)c5)c(Cl)c4)c3c2)c1
b. CS(=O)(=O)N1CCOC(Cn2ccc(-c3ccc4ncnc(Nc5ccc6c(cnn6Cc6cccc(F)c6)c5)c4c3)c2)C1 (stereo unspecified)
c. CN1CCN(C(=O)c2cn(-c3ccc4ncnc(Nc5ccc(OCc6cccc(F)c6)c(Cl)c5)c4c3)cc2CCO)CC1
input: Rank the 3 molecules: largest IC50 first, smallest last. Labels, ranked as asked.
output: b, a, c
(b: 257 nM, a: 18 nM, c: 5 nM)

a. O=C(NCCN1CCOCC1)c1cn(-c2ccc3ncnc(Nc4ccc(OCc5cccc(F)c5)c(Cl)c4)c3c2)cc1CCO
b. Fc1cccc(Cn2ncc3cc(Nc4ncnc5ccc(-c6cc[nH]c6)cc45)ccc32)c1
c. CN1CCN(CCNC(=O)c2cn(-c3ccc4ncnc(Nc5ccc(OCc6cccc(F)c6)c(Cl)c5)c4c3)cc2CCO)CC1
input: Your job: order these 3 records by IC50, ascending. Labels, ranked as asked.
output: b, c, a

1. CCN(CC)CCNCc1ccc(-c2ccc3ncnc(Nc4ccc(OCc5cccc(F)c5)c(Cl)c4)c3c2)[nH]1
2. OC(CN1CCN(C2CC2)CC1)Cn1ccc(-c2ccc3ncnc(Nc4ccc(OCc5cccc(F)c5)c(Cl)c4)c3c2)c1 (stereo unspecified)
3. O=C(NCCN1CCOCC1)c1cn(-c2ccc3ncnc(Nc4ccc(OCc5ccccn5)c(Cl)c4)c3c2)cc1CCO
input: Rank the 3 molecules: largest IC50 first, smallest last. Labels, ranked as asked.
output: 2, 3, 1
(2: 117 nM, 3: 30 nM, 1: 18 nM)

1. CN1CCN(C(=O)c2cn(-c3ccc4ncnc(Nc5ccc6c(cnn6Cc6ccc(F)cc6)c5)c4c3)cc2CCO)CC1
2. OCCc1cn(-c2ccc3ncnc(Nc4ccc(OCc5ccccn5)c(Cl)c4)c3c2)cc1CN1CCCCC1
input: Problem: Given the entries 1 and 2 , determine which has the lower reported IC50. Field: selected label. Fill in the label of the entry you choose.
output: 2

A. OCCc1cn(-c2ccc3ncnc(Nc4ccc(OCc5cccc(F)c5)c(Cl)c4)c3c2)cc1CN1CCOCC1
B. Cc1ccc(Oc2ccc(Nc3ncnc4ccc(-c5cc[nH]c5)cc34)cc2C)cn1
input: When their IC50 values are compared, which is larger, A or B ? Field: selected label. Fill in the label of the entry you choose.
output: B
(B: 387 nM, A: 4 nM)
